target: Retinoic acid receptor beta (Homo sapiens); test: Percent transcriptional activation of RAR beta compared to […]; type: functional
Measurement name: Efficacy (%)
Return type: number; implicit unit %.

Qu. // fetch Efficacy given entry `CC1(C)CCC(C)(C)c2cc(C(=O)Nc3ccc(C(=O)O)c(F)c3)ccc21`
Ans. 78

Qu. Give the value of Efficacy reported for the following: `CC1(C)CCC(C)(C)c2cc(C(=O)Nc3cc(F)c(C(=O)O)c(F)c3)ccc21`
Ans. 25

Qu. Supply reported Efficacy belonging to this molecule: `CC1(C)CCC(C)(C)c2cc(C(=O)Nc3ccc(C(=O)O)cc3)ccc21`
Ans. 105

Qu. Kindly indicate its recorded Efficacy. Item: `CC1(C)CCC(C)(C)c2cc(C(=O)Nc3cc(F)c(C(=O)O)c(F)c3)c(O)cc21`
Ans. 10

---

Answer each item with its documented pKd.
Biological target: Retinoic acid receptor beta (Homo sapiens)
Sequence (P10826 whole entry): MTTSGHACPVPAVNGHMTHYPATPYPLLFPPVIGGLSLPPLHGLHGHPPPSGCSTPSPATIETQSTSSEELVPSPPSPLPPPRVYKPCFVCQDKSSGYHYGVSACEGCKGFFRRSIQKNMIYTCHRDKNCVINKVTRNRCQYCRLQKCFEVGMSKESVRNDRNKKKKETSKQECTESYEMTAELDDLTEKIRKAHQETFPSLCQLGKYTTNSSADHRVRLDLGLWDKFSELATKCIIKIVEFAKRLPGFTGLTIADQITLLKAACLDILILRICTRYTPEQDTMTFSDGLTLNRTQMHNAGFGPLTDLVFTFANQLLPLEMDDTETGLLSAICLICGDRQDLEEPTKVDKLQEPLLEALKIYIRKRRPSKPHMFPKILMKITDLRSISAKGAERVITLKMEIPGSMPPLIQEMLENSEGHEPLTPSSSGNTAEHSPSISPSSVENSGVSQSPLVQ
pKd: −log10 of the molar value.

Qu. Provide one value: measured pKd of CC1(C)CCC(C)(C)c2c1cc(C(=O)Nc1cc(F)c(C(=O)O)c(F)c1)c(O)c2Cl [NRX195183]
Ans. < 4.00

Qu. # return recorded pKd for entry `CC1(C)CCC(C)(C)c2c1cc(C(=O)Nc1cc(F)c(C(=O)O)c(F)c1)c(O)c2Br`
Ans. 5.19

Qu. Note down pKd recorded for `CC1(C)CCC(C)(C)c2cc(C(=O)Nc3cc(F)c(C(=O)O)c(F)c3)c(O)cc21`
Ans. < 4.00

---

target: Retinoic acid receptor alpha (Homo sapiens, UniProt P10276); test: Effective concentration for retinoic acid receptor RAR alpha transcriptional activation
Sequence (P10276 whole entry): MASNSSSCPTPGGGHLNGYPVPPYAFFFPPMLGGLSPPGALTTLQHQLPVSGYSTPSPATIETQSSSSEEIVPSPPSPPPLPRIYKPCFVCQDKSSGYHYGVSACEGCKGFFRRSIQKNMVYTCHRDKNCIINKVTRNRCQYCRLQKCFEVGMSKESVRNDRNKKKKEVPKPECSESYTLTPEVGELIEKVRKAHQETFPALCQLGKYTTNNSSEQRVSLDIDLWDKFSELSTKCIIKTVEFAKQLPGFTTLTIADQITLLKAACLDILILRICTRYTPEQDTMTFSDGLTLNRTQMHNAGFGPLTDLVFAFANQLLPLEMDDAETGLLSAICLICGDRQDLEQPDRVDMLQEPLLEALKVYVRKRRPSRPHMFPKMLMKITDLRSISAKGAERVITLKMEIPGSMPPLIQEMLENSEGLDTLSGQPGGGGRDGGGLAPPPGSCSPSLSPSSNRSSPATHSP
Kindly supply the reported pEC50 values for the records listed here.
On this scale, pEC50 is minus log10 of a concentration expressed in M (mol/L).

Qu. State its pEC50 for this molecule: `CC1(C)CCC(C)(C)c2cc(C(=O)Nc3ccc(C(=O)O)c(F)c3)ccc21`
Ans. 8.10

Qu. For the molecule `CC1(C)CCC(C)(C)c2cc(C(=O)Nc3cc(F)c(C(=O)O)c(F)c3)c(O)cc21` , report pEC50.
Ans. 6.95

Qu. Give pEC50 for the following molecule: CC1(C)CCC(C)(C)c2c1cc(C(=O)Nc1cc(F)c(C(=O)O)c(F)c1)c(O)c2Cl [NRX195183]
Ans. 6.70

Qu. Identify the reported pEC50 for the following entry. `CC1(C)CCC(C)(C)c2c1cc(C(=O)Nc1cc(F)c(C(=O)O)c(F)c1)c(O)c2Br`
Ans. 6.54

Qu. Supply recorded pEC50 for `CC1(C)CCC(C)(C)c2cc(C(=O)Nc3cc(F)c(C(=O)O)c(F)c3)ccc21` here.
Ans. 7.03

Where do these numbers come from? They come from ChEMBL document CHEMBL1134943.
